Measured values drawn from paper PMC6965684 for this set.

target: 5-ht1E receptor (Homo sapiens, UniProt P28566); construct: gene HTR1E; full-length human recombinant receptor in CHO-K1 cells (Ogeda); crude membranes; test: radioligand competition, CHO-K1 membranes; type: binding; conditions: read-out: 5-ht1E / pKi (converted)
Sequence (P28566 whole entry): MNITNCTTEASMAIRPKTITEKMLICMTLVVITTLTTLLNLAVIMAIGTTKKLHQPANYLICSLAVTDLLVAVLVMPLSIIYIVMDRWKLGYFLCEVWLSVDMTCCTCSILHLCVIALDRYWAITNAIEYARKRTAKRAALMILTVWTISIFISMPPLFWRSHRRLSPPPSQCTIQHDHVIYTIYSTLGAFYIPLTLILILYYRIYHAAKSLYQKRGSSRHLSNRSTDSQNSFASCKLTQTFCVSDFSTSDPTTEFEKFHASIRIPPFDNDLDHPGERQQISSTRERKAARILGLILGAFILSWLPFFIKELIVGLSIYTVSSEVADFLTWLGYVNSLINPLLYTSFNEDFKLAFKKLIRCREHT
Counter-ions that a name gives are not always drawn.
Parameter Measured: log10 Ki (log10 of the value in nM)
In our notation, the value equals log10 of Ki in nM.

N#Cc1ccc(N2CCN(C(=O)COc3ccc4[nH]cc(CCN)c4c3)CC2)cc1 [Donitriptan hydrochloride] = 3.23
CN1CCC[C@@H]1Cc1c[nH]c2ccc(CCS(=O)(=O)c3ccccc3)cc12 [Eletriptan hydrobromide] = 1.79
CNS(=O)(=O)Cc1ccc2[nH]cc(CCN(C)C)c2c1 [Sumatriptan succinate] = 3.28
CNS(=O)(=O)Cc1ccc2[nH]cc(CCCN3CCN(c4ncncc4OC)CC3)c2c1 [Avitriptan fumarate] = 3.55

Continue with the next molecule.
Exercise: Look up log10 Ki: CNS(=O)(=O)CCc1ccc2[nH]cc(C3CCN(C)CC3)c2c1 [Naratriptan hydrochloride]
Key: 0.87

====

Reported pEC50 by item:
Target: 5-HT1A receptor (Homo sapiens, UniProt P08908)
Construct: gene HTR1A; full-length human recombinant receptor in CHO-K1 cells (Ogeda); crude membranes
Sequence (P08908 1-422): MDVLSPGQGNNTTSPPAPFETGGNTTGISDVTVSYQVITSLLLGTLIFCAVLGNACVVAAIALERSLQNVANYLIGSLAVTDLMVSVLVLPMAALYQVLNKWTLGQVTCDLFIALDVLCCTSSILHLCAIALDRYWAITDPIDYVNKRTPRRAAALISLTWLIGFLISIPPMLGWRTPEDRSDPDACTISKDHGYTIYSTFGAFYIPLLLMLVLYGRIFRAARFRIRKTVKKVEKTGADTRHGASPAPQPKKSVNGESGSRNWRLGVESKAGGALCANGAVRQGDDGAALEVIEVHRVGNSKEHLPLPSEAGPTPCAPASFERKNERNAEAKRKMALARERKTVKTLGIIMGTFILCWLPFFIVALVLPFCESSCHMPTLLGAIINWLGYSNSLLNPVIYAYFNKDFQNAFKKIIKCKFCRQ
Assay: cell-based
Set-up: species or system CHO-K1; cAMP HTRF agonist assay, Gi coupled receptors, inhibition of stimulated cAMP
Conditions: cAMP
Protocol: Concentration–response curves were performed in parallel with the agonists. […] After addition of the lysis buffer and 1‐hr incubation, cAMP concentrations were estimated according to the manufacturer specification with the HTRF kit (Cisbio International, Codelet, France). […] For the new assays developed in this study (i.e., 5‐ht1E receptor), the two independent pIC50 determined must be concordant with a 1 log unit interval for the assays to be validated.
pEC50: −log10 of the molar value. Where a name gives a salt, the structure may show the parent alone.

Sample answers from the record:
CNS(=O)(=O)CCc1ccc2[nH]cc(C3CCN(C)CC3)c2c1 [Naratriptan hydrochloride] = < 5.00
N#Cc1ccc(N2CCN(C(=O)COc3ccc4[nH]cc(CCN)c4c3)CC2)cc1 [Donitriptan hydrochloride] = 5.94
CN(C)[C@@H]1CCc2[nH]c3ccc(NC(=O)c4ccc(F)cc4)cc3c2C1 [LY344864 hydrochloride] = < 5.00
CNC1CCc2[nH]c3ccc(C(N)=O)cc3c2C1 (racemic) [Frovatriptan racemate] = < 5.00
CN1CCC[C@@H]1Cc1c[nH]c2ccc(CCS(=O)(=O)c3ccccc3)cc12 [Eletriptan hydrobromide] = 5.74

Exercise: Please give the measured pEC50 for this compound: CNS(=O)(=O)Cc1ccc2[nH]cc(CCCN3CCN(c4ncncc4OC)CC3)c2c1 [Avitriptan fumarate]
Key: < 5.00
